- ASSAY_NOTES: Pharmacokinetics, plasma distribution after IP injection
- Format: in vivo, mice
- CONDITIONS_USED: mouse, plasma; IP injection
QUANTITY_KIND: concentration at 24 h (µM)
Return type: number; implicit unit µM.

What does the record list as concentration at 24 h for c1ccc2c(c1)Sc1ccccc1N2CCN1CCOCC1 ?
6
